TEST SYSTEM: T1, human B7-H4 expressed on cells (human, UniProt Q7Z7D3 25-282)
T1 construct: the cell line is named under assay or readout; also called full length human B7-H4 on HEK293 cells; 293T.hB7-H4
T1 sequence: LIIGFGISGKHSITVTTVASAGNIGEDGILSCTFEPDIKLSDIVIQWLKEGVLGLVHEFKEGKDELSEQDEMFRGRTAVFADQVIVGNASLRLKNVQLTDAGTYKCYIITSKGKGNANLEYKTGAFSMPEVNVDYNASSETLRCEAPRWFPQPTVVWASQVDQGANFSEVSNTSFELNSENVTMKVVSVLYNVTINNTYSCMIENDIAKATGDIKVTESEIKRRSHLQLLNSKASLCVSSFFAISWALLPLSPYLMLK
TEST: flow cytometry on HEK293.hB7-H4 transfectants, one-site specific binding fit
READOUT NAME: Kd (nM)
# unit: nM | format: bare number

Worked cases, answers included:
humanized 6H3 variant 11 (antibody, V domains shown, also called V11; H2C L2B) VH: EVQLVQSGAEMKKPGASVKVSCKASGYTFTDYYMNWVRQAPGQSLEWIGVINPYNGDTTYNQKFQGRVTVTVDKSATTAYMELSSLRSEDTAVYYCARYPESTYWGQGTLVTVSS VL: DIVMTQTPLSLPVTLGQPASISCRSSQSLVHINGNTYLHWYQQRPGQSPRVLIYKVSNRFSGVPDRFSGSGSGTDFTLKISRVEAEDVGVYFCSQSTHVPLTFGQGTKVEIK: 6.9
humanized 6H3 variant 14 (antibody, V domains shown, also called V14; 6H3 V14) VH: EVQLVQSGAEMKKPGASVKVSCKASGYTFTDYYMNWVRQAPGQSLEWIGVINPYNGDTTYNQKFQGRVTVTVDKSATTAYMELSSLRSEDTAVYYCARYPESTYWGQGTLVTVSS VL: DIVMTQTPLSLPVTLGQPASISCRSSQSLVHINGNTYLHWYLQRPGQSPKVLIYKVSNRFSGVPDRFSGSGSGTDFTLKISRVEAEDVGVYFCSQSTHVPLTFGAGTKVEIK: 5.8

What value of measured Kd is listed for humanized 6H3 variant 5 (antibody, V domains shown, also called V5; Variant 5 (antibody)) VH: EVQLVQSGAEVKKPGASVKVSCKASGYTFTDYYMNWVRQAPGQGLEWIGIINPYNGDTSYNQKFKGRVTLTVDKSTSTAYMELSSLRSEDTAVYYCARYPESTYWGQGTLVTVSS VL: DVVMTQSPLSLPVTLGQPASISCRSSQSLVHINGNTYLHWYLQRPGQSPKVLIYKVSNRFSGVPDRFSGSGSGTDFTLKISRVEAEDVGVYFCSQSTHVPLTFGGGTKVEIK ?
4.2
